Just for reference, patent US20200253929A1 is where these values come from.

- measured on: hERG channel (Homo sapiens, UniProt Q12809)
- Construct: expressed in transfected cells; host or cells: HEK293
- Sequence (Q12809 whole entry): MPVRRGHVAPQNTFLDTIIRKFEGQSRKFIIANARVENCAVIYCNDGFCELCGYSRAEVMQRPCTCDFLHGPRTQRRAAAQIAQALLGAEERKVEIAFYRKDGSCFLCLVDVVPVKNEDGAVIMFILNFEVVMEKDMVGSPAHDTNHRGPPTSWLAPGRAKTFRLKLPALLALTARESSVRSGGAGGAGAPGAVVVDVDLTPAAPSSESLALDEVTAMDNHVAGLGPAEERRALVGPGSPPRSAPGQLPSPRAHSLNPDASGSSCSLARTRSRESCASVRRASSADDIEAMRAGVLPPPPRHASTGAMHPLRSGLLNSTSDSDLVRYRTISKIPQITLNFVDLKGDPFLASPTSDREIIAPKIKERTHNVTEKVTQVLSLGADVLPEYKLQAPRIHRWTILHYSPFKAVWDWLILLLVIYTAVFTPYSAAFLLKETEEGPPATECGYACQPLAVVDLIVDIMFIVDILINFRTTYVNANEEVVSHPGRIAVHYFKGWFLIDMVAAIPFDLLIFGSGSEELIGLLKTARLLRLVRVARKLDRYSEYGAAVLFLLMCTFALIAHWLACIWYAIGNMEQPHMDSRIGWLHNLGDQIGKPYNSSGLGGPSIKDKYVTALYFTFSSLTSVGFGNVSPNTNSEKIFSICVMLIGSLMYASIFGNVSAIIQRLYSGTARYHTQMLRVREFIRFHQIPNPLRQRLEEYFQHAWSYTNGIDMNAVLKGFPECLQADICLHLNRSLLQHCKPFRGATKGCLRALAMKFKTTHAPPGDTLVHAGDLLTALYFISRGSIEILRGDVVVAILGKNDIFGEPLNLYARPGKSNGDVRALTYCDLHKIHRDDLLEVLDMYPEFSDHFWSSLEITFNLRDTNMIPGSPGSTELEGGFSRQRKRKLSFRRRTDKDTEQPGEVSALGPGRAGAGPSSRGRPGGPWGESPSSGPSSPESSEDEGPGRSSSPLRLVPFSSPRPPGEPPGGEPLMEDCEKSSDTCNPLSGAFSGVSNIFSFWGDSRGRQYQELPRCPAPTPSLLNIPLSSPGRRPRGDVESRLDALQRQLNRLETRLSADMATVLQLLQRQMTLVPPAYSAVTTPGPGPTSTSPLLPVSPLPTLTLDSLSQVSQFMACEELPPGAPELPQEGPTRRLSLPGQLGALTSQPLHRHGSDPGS
- experimental protocol: Cardiotoxicity fluorescence-based assay, hERG channel
- Format: cell-based
- measurement parameters: HEK293 cells
parameter: IC50

# compound, IC50
data = [
    ("CCc1ccc(C2=C(C)C(=O)C3(O2)C(=O)NC(OC)(C(=O)c2ccccc2)C3O)o1 (centres unmarked)", "> 50 µM"),
]

Now look at this one.
Quick one: IC50 of CC/C=C\[C@H](O)[C@H](O)C1=C(C)C(=O)[C@]2(O1)C(=O)N[C@](OC)(C(=O)c1ccccc1)[C@H]2O ?
> 50 µM
